Hey, just so you know, these numbers are from paper PMC4336329.

Entries and their measured hERG current change (%, negative = inhibition) at 10uM follow.
# ASSAYED_TARGET: human ether-à-go-go-related gene (hERG) potassium channel (human);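 further: peak tail current of the secondary pulse compared with the same well before compound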
# Sequence (Q12809 whole entry, looked up): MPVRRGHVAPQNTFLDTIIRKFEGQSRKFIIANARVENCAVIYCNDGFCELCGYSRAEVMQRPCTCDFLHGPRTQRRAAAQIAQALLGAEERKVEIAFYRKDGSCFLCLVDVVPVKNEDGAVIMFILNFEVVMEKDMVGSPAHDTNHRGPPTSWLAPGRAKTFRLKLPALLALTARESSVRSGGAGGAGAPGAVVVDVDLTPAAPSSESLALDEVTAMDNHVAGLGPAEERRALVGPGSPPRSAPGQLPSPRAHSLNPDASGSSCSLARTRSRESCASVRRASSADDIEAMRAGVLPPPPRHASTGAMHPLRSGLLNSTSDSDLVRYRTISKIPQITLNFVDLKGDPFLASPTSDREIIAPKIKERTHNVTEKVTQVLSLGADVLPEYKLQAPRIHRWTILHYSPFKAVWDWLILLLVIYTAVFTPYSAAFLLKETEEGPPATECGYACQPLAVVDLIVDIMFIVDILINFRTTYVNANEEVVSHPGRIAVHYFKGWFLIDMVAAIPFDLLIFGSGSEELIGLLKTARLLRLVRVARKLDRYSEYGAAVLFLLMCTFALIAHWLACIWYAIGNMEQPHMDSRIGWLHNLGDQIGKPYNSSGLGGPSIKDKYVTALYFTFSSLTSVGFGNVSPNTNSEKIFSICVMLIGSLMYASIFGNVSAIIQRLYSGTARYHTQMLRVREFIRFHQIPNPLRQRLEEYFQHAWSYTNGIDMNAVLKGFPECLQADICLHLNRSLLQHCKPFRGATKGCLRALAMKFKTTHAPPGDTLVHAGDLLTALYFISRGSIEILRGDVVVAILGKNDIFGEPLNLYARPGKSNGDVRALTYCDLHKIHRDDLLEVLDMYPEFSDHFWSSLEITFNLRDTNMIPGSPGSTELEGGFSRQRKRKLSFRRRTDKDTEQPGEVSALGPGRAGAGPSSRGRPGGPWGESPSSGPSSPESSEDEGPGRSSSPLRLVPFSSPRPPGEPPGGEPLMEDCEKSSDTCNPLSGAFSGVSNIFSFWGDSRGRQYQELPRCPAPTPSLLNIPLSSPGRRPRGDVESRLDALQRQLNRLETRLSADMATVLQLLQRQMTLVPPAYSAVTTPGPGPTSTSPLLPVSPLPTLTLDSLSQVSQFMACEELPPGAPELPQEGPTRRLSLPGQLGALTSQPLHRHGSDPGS
# MEASUREMENT_DESCRIPTION: primary screen, population patch clamp on CHO cells stably expressing hERG; higher = less effect of the substance
Among all 310,000 compounds or so, about 14,000 (4.5%) showed an effect of 50% or more. Effects have a minus sign here. The entries come from a sample that favours strong results as a whole.
Respond numerically; units are % and should not be typed.

>  <CHEMICAL_STRING>
CC(C)(C)c1ccc(C(=O)Nc2cccc3c(=O)[nH][nH]c(=O)c23)cc1

>  <ASSAYED_TARGET>
human ether-à-go-go-related gene (hERG) potassium channel (human);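 further: peak tail current of the secondary pulse compared with the same well before compound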

>  <NUMBER>
-9.65

$$$$
>  <CHEMICAL_STRING>
CN(C)S(=O)(=O)c1cc(NC(=O)CN2CCN(c3ccccc3F)CC2)ccc1Cl

>  <ASSAYED_TARGET>
human ether-à-go-go-related gene (hERG) potassium channel (human);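 further: peak tail current of the secondary pulse compared with the same well before compound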

>  <NUMBER>
5.43

$$$$
>  <CHEMICAL_STRING>
Cc1ccc(N2CN(CCC3=CCCCC3)CNC2=S)cc1

>  <ASSAYED_TARGET>
human ether-à-go-go-related gene (hERG) potassium channel (human);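 further: peak tail current of the secondary pulse compared with the same well before compound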

>  <NUMBER>
18

$$$$

Given the entry `COC(=O)C1=C(c2ccc(F)cc2F)C[C@@H]2CC[C@H]1N2C(=O)NCCOc1ccccc1` , what hERG current change (%, negative = inhibition) at 10uM was observed with human ether-à-go-go-related gene (hERG) potassium channel (human)?
-23.5

Given the entry `COc1cc(C)ccc1OCCCCOc1ccccc1C(C)=O` , what hERG current change (%, negative = inhibition) at 10uM was observed with human ether-à-go-go-related gene (hERG) potassium channel (human)?
3.3

Given the entry `COc1ccccc1N1CCN(C(=O)CSc2nc(N)cc(=O)[nH]2)CC1` , what hERG current change (%, negative = inhibition) at 10uM was observed with human ether-à-go-go-related gene (hERG) potassium channel (human)?
6.2

Given the entry `Cc1ccc(/C=C2\SC(=S)N(CCC(=O)NNC(=O)c3cccnc3)C2=O)cc1` , what hERG current change (%, negative = inhibition) at 10uM was observed with human ether-à-go-go-related gene (hERG) potassium channel (human)?
1.06

Given the entry `CCc1nnc(NC(=O)CSc2nnc(-c3ccc(S(=O)(=O)N4CCCC4)cc3)n2CC)s1` , what hERG current change (%, negative = inhibition) at 10uM was observed with human ether-à-go-go-related gene (hERG) potassium channel (human)?
8.86

Given the entry `CCOC(=O)c1c(C)cc(C)n2c1nc1ccccc12` , what hERG current change (%, negative = inhibition) at 10uM was observed with human ether-à-go-go-related gene (hERG) potassium channel (human)?
-38.8

Given the entry `COc1ccc(S(=O)(=O)N2CCN(C(=O)c3c(C)nn(-c4ccccc4)c3Cl)CC2)cc1` , what hERG current change (%, negative = inhibition) at 10uM was observed with human ether-à-go-go-related gene (hERG) potassium channel (human)?
-19.4
